# System: K4 kissing-loop RNA reporter;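 further: bound reporter read as fluorescence of individual clusters on recovered sequencing chips by microscopy, with normalized cluster intensities fitted with a binding model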
# assay-details: apparent KD of K4 kissing-loop reporter; higher = weaker reporter binding
# particulars: Eterna round: R107; input ligand: arginine 13.2 mM
Below, each entry is listed alongside its reported apparent KD of K4 kissing-loop reporter.
Write the numeric value and follow it with the unit.

Prompt: Answer with the recorded apparent KD of K4 kissing-loop reporter for the sequence listed here: UUGAGCCGGACCCAAGUCCGGCUCUGCGAGCGAGGACCGGUACGGCCGCCACUCGGUGCAGUGAUGUUGCAUGGCCGCAAGGCCG [#2 Exclusion - Tryptophan A Attempt #7 (HarryS)]
Response: 294 nM

Prompt: Give the reported apparent KD of K4 kissing-loop reporter for this sequence. GACGGGCAGUGAUGUUGCCGGUCUCUUGGACGAGGACCGGUACGGCCGCCACUCGAUCUGAUGCGGGAAUUGCAUCUUUUAAUAA [Raorbirabe]
Response: 115 nM

Prompt: Fill in reported apparent KD of K4 kissing-loop reporter for this entry: CGCAGUGAUGUUGCUAUUAUUCUUGAUUAACGAGGACCGGUACGGCCGCCACUCGAUUUCUAUCUUAUUUUGUGUUAUGUUGAUU [JR_ExcTryptoA_Sub008]
Response: 359 nM

Prompt: Using known records, supply apparent KD of K4 kissing-loop reporter for AGUGGACGUGUCCGGAGUGAUGUUCAGGAUACCAGACACGAAAGUGUCCCUUGGCAGCCGGAGUGAUGUUCCGGCGUUCACUAAA [Omei KL Theo A Exc B v4]
Response: 248 nM

Prompt: Provide only the value of recorded apparent KD of K4 kissing-loop reporter for UAUUGAGUGAUGUUCGAUAACCAAUCAGAUACCAGUUUUGUAGAAAACCCUUGGCAGCUGCUCAGCUCUAUAAUGCUUCGCCCUU [theeternabot_sameState_KL_Theo_A_18]
Response: 169 nM
